Data credit: ChEMBL document CHEMBL1148639

Experiment: Stability in dog liver microsome
Format: ADME, Canis lupus familiaris
Settings: liver microsomes, read-out: Stability
PARAMETER: half-life

>  <STRUCTURE SMILES>
CCCCOc1ncc(C(C)=O)cc1-c1nc(O)c2nn(Cc3nccn3C)c(CC)c2n1

>  <ASSAY VALUE>
> 2 h

$$$$
>  <STRUCTURE SMILES>
CCCCOc1ncc(C(C)=O)cc1-c1nc2c(CC)n(CCN3CCOCC3)nc2c(=O)[nH]1

>  <ASSAY VALUE>
> 2 h

$$$$
>  <STRUCTURE SMILES>
CCCCOc1ncc(C(C)=O)cc1-c1nc2c(CC)n(C3CN(CC)C3)nc2c(=O)[nH]1

>  <ASSAY VALUE>
1.58 h

$$$$

Dear colleague, I am looking for the recorded half-life of the following molecule: CCCCOc1ncc(C(C)=O)cc1-c1nc2c(CC)n(C3CCN(CC)CC3)nc2c(=O)[nH]1
> 2 h

May I ask what half-life has been recorded for CCCOc1ncc(C(C)=O)cc1-c1nc2c(CC)n(C3CN(C(C)C)C3)nc2c(=O)[nH]1 ?
> 2 h
